# measurementTarget: Poly [ADP-ribose] polymerase 1 (Homo sapiens, UniProt P09874)
# Sequence (P09874 whole entry): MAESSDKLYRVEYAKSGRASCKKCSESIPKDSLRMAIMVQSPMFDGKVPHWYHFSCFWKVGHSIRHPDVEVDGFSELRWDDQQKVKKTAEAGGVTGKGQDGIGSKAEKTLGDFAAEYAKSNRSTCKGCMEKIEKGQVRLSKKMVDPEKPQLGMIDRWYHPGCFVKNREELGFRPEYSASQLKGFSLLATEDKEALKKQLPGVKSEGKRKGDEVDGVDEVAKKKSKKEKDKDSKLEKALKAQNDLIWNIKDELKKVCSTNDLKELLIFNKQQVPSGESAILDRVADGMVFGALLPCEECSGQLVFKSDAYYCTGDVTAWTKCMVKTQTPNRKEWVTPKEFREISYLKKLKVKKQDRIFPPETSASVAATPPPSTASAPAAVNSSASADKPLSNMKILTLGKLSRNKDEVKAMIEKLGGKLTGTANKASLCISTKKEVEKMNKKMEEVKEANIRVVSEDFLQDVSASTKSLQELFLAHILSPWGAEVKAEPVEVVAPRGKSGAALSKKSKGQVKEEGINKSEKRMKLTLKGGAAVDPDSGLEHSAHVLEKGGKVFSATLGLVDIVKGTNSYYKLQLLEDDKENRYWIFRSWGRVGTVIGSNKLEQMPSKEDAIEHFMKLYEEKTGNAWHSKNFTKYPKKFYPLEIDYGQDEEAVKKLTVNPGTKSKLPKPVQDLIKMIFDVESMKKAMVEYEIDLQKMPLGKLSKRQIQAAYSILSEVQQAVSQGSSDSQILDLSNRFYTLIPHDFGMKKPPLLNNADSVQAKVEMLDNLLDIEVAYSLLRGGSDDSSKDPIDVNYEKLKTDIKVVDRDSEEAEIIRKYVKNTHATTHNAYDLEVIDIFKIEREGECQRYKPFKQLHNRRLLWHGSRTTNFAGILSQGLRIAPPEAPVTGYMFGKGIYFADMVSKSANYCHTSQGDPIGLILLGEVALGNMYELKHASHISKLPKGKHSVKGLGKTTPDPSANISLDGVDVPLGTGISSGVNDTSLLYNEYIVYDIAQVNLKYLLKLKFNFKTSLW

molecule	readingUnit	ltGtEq	Ki
CN1CCN(c2ccc(N3Cc4cccc(C(N)=O)c4C3=O)cc2)CC1	µM	=	0.048
NC(=O)c1cccc2c1C(=O)N(C1CCNC1)C2 (stereo not given)	µM	=	0.059
NC(=O)c1cccc2c1C(=O)N(C1CCCCC1)C2	µM	=	0.172
NC(=O)c1cccc2c1C(=O)N(C1CCNCC1)C2	µM	=	0.033
NC(=O)c1cccc2c1C(=O)N(C1CCCNC1)C2 (stereo not given)	µM	=	0.14
Cc1cccc(N2Cc3cccc(C(N)=O)c3C2=O)c1	µM	=	0.261
NC(=O)c1cccc2c1C(=O)N(Cc1cccnc1)C2	µM	>	9.5
NC(=O)c1cccc2c1C(=O)N(c1cccc(C3CCNCC3)c1)C2	µM	=	0.314
NC(=O)c1cccc2c1C(=O)N(c1cccc(CN3CCCC3)c1)C2	µM	=	0.391
NC(=O)c1cccc2c1C(=O)N(CC1CCCN1)C2 (stereo not given)	µM	=	0.377
CN(C)c1ccc(N2Cc3cccc(C(N)=O)c3C2=O)cc1	µM	=	0.07
NC(=O)c1cccc2c1C(=O)N(c1ccc(CN3CCCC3)cc1)C2	µM	=	0.053
NC(=O)c1cccc2c1C(=O)N(CC1CCCNC1)C2 (stereo not given)	µM	=	0.164
NC(=O)c1cccc2c1C(=O)N(c1ccc(C3CCNCC3)cc1)C2	µM	=	0.032
CC(C)CN1Cc2cccc(C(N)=O)c2C1=O	µM	=	0.112
